Answer each item with its documented K Factor.
- System: SW480 P3 (ATCC #CCL228) human colon carcinoma cells
- testDetails: Screening assay for enhancement of transient expression (β-galactosidase gene, liposomal transfection, 6-well plates); also: test concentration or dose not given here
- Format: cell-based
- assayConditions: Table 1; ratio of first order rate constants of change in expression, control vs compound
# answer = number (no unit)

[ask] Which K Factor value belongs to N[C@@H](Cc1c[nH]c2ccccc12)C(=O)O ?
[reply] 2

[ask] Which K Factor value belongs to O=C(O)CNC(=O)c1ccccc1 ?
[reply] 1

[ask] Which K Factor value belongs to CCC(N)C(=O)O (stereo not drawn) ?
[reply] 1

[ask] Which K Factor value belongs to N[C@@H](Cc1ccccc1)C(=O)O ?
[reply] 3

These entries and their values trace back to patent US20030073654A1.
